experiment: Plasma pharmacokinetics of cocktail index drugs and their metabolites, five-phase crossover trial; conditions: human, plasma, oral, t1/2, geometric mean (geometric CV), phase IV: clopidogrel 300 mg pretreatment + full cocktail
VALUE KIND: half-life
Include the unit after the number when you answer.

INSERT INTO assay_data (smiles_data, result) VALUES
  ('Cn1c(=O)[nH]c2ncn(C)c2c1=O', '12.8 h');

Kindly review the next molecule as well.
Query :: GET /values?readout=half-life&item= COc1ccc2nc(S(=O)(=O)Cc3ncc(C)c(OC)c3C)[nH]c2c1
Result :: 1.88 h

* * *

Kindly state AUC(0-t) for each of the entries shown.
assay: Plasma pharmacokinetics of cocktail index drugs and their metabolites, five-phase crossover trial; settings: human, plasma, oral, AUC0-12h, geometric mean (geometric CV), phase II: Geneva cocktail;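 also: parameters derived from plasma drug levels quantified by LC–MS with internal standards after acetonitrile protein precipitation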
Answers are plain numbers, in ng·h/mL.

INSERT INTO assay_data (smiles_data, value_kind, numeric_result) VALUES
  ('Cn1c(=O)c2c(ncn2C)n(C)c1=O', 'AUC(0-t)', 6250);

Kindly review the next molecule as well.
Query :: GET /values?readout=AUC(0-t)&item= Cn1c(=O)[nH]c2ncn(C)c2c1=O
Result :: 3370
